- TARGET_OR_SYSTEM: T1, TBD-21 (HC F108A)
- T1 construct: anti-TROP2 Fab, CDR3 HC alanine mutant
- T1 sequence (VH, as listed by the source, chain 1 of 2): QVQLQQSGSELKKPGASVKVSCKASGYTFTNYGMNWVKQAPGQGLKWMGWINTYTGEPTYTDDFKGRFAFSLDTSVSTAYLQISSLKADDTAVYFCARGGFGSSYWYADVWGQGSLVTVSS
- T1 sequence (VL, as listed by the source, chain 2 of 2): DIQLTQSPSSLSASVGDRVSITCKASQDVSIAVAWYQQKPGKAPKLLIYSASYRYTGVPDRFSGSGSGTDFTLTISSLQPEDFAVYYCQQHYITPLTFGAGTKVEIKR
- PROTOCOL: competition ELISA, Fab on captured TROP2
Measured log10(IC50) by item
A value of 2 here means IC50 of 100 in µM, since values are log10.

[[record]]
binder = "VEFCAIYSWPICKI (mask peptide for the TROP2 Fab) [Peptide-46]"
quantity = "log10(IC50)"
measured_number = 1.41

[[record]]
binder = "VDFCAIYSWPICKI (mask peptide for the TROP2 Fab) [Peptide-50]"
quantity = "log10(IC50)"
measured_number = 0.57

[[record]]
binder = "VDFCALYHWPICYQ (mask peptide for the TROP2 Fab) [Peptide-43]"
quantity = "log10(IC50)"
measured_number = 0.02

[[record]]
binder = "IDFCYRYGWPVCQT (mask peptide for the TROP2 Fab) [Peptide-57]"
quantity = "log10(IC50)"
measured_number = 1.94

[[record]]
binder = "VDFCGLYHWPICYQV (mask peptide for the TROP2 Fab) [Peptide-51]"
quantity = "log10(IC50)"
measured_number = 0.10


Req: Report log10(IC50) for VDFCYQYGWPICSRV (mask peptide for the TROP2 Fab) [Peptide-56] please.
Resp: 2.03

Req: Given VDFCYRYSWPVCWA (mask peptide for the TROP2 Fab) [Peptide-54] , state its recorded log10(IC50).
Resp: 2.21

Req: I'd like to know its log10(IC50). The binder in question is VDFCGLYHWPICYQ (mask peptide for the TROP2 Fab) [Peptide-8]
Resp: 0.33
